- System: E. coli ATCC 25922
- Construct: ATCC 25922
- Protocol description: microbe, parasite or virus in culture
- Parameters: Bacterial growth inhibition, OD600, dose-response in 384-well plates, AC50
- Measurement context: Escherichia coli, ATCC25922, 24 h
Where a name gives a salt, the structure may show the parent alone.
Endpoint label: AC50
Mention the unit after the number when you answer.

Prompt line: Name the recorded AC50 of c1ccc(-c2cccc(-c3ccccn3)n2)nc1 , assay system E. coli ATCC 25922.
Response line: 52.3 µM

Prompt line: Give reported AC50 for Cc1ccc2c(Cl)cc(Cl)c(O)c2n1 (E. coli ATCC 25922)
Response line: 20.4 µM

Prompt line: Give AC50 for this entry on E. coli ATCC 25922: NC(=S)N/N=C/c1ncccc1N
Response line: 101 µM

Prompt line: GET AC50 | system: E. coli ATCC 25922 | item: C/C(=N\N=C(N)N)c1cc(NC(=O)CCCCCCCCC(=O)Nc2cc(/C(C)=N/N=C(N)N)cc(/C(C)=N/N=C(N)N)c2)cc(/C(C)=N/N=C(N)N)c1
Response line: 7.07 µM

Prompt line: Give measured AC50 for Oc1cccc2cccnc12 (E. coli ATCC 25922).
Response line: 173 µM

Prompt line: Identify measured AC50 obtained with E. coli ATCC 25922 for Oc1c(Cl)cc(Cl)c2cccnc12 .
Response line: 10.1 µM

Prompt line: Report its AC50 with E. coli ATCC 25922 as the test system: COc1cc(NCc2ccc3nc(N)nc(N)c3c2C)cc(OC)c1OC [EOS101467, TRIMETREXATE]
Response line: 1.99 µM

Prompt line: Quote AC50 with test system E. coli ATCC 25922 for [O-][n+]1ccccc1S
Response line: 17.8 µM

Prompt line: State the measured AC50 (E. coli ATCC 25922) of Cc1nc2c(=O)n(C)c(=O)nc-2n(C)n1
Response line: 9.33 µM

Prompt line: Name the value of AC50 reported for CC(C)C[C@H](NC(=O)[C@H](CCc1ccccc1)NC(=O)CN1CCOCC1)C(=O)N[C@@H](Cc1ccccc1)C(=O)N[C@@H](CC(C)C)C(=O)[C@@]1(C)CO1 when tested on E. coli ATCC 25922.
Response line: 31.4 µM

Prompt line: GET AC50 where system = E. coli ATCC 25922 and item = CCN1/C(=C/c2ccc3ccccc3[n+]2CC)C=Cc2ccccc21
Response line: 92.9 µM

Prompt line: # return AC50 of C=C1c2cccc(O)c2C(=O)C2=C(O)[C@]3(O)C(=O)C(C(N)=O)=C(O)[C@@H](N(C)C)[C@@H]3[C@@H](O)[C@H]12 [EOS100925, METHACYCLINE HYDROCHLORIDE] (system: E. coli ATCC 25922)
Response line: 95 µM

Prompt line: Output reported AC50 of the compound Cc1c2ccncc2c(C)c2c1[nH]c1ccccc12 on E. coli ATCC 25922.
Response line: 64 µM

Prompt line: Check E. coli ATCC 25922 data and give AC50 for Oc1c(I)cc(I)c2cccnc12 [EOS100343, DIIODOHYDROXYQUINOLINE] .
Response line: 55.1 µM

Prompt line: Would you please give the reported AC50 of CCN1CCN(C(c2ccc(C(F)(F)F)cc2)c2ccc3cccnc3c2O)CC1 (stereo not shown) with E. coli ATCC 25922?
Response line: 82.9 µM

Prompt line: Find the measured AC50 of COc1cc(/C=C/C(O)=C/C(=O)/C=C/c2ccc(O)cc2)ccc1O with E. coli ATCC 25922 as test system.
Response line: 56.1 µM
